- TESTED_TARGET: HDAC6 (Homo sapiens (Human))
- PROCEDURE_DETAILS: HDAC6 in vitro enzymatic assay (fluorescence)
- Assay type: biochemical
- MEASUREMENT_CONTEXT: Table 3; read-out: IC50 (nM) for inhibition of HDAC6
Counter-ions that a name gives are not always drawn.
ENDPOINT: IC50 (nM)

In the examples that follow, each entry is paired with its recorded IC50.
O=C(NO)c1ccc2sc(-c3cccc(C(F)(F)F)c3)cc2c1 :: 28
O=C(NO)c1ccc2sc(-c3ccc(F)cc3)nc2c1 :: 18
COc1cccc(-c2cc3ccc(C(=O)NO)cc3o2)c1 :: 4
O=C(NO)c1ccc2oc(-c3ccc(N4CCCC4)nc3)nc2c1 [Example 41, trifluoroacetate] :: 22

[a] CC(C)(C)c1ccc(-c2nc3cc(C(=O)NO)ccc3o2)cc1
[b] CC(C)c1ccc(-c2nc3cc(C(=O)NO)ccc3o2)cc1F
[c] CC(C)c1ccc(NCc2nc3cc(C(=O)NO)ccc3s2)cc1
[d] CC(C)c1ccc(-c2nc3cc(C(=O)NO)cnc3o2)cc1
Rank the items in ascending order with respect to IC50. # respond with the labels, arranged in the requested order
a, c, d, b

====

- TESTED_TARGET: HDAC6 (Homo sapiens (Human), UniProt Q9UBN7)
- Sequence (Q9UBN7 whole entry): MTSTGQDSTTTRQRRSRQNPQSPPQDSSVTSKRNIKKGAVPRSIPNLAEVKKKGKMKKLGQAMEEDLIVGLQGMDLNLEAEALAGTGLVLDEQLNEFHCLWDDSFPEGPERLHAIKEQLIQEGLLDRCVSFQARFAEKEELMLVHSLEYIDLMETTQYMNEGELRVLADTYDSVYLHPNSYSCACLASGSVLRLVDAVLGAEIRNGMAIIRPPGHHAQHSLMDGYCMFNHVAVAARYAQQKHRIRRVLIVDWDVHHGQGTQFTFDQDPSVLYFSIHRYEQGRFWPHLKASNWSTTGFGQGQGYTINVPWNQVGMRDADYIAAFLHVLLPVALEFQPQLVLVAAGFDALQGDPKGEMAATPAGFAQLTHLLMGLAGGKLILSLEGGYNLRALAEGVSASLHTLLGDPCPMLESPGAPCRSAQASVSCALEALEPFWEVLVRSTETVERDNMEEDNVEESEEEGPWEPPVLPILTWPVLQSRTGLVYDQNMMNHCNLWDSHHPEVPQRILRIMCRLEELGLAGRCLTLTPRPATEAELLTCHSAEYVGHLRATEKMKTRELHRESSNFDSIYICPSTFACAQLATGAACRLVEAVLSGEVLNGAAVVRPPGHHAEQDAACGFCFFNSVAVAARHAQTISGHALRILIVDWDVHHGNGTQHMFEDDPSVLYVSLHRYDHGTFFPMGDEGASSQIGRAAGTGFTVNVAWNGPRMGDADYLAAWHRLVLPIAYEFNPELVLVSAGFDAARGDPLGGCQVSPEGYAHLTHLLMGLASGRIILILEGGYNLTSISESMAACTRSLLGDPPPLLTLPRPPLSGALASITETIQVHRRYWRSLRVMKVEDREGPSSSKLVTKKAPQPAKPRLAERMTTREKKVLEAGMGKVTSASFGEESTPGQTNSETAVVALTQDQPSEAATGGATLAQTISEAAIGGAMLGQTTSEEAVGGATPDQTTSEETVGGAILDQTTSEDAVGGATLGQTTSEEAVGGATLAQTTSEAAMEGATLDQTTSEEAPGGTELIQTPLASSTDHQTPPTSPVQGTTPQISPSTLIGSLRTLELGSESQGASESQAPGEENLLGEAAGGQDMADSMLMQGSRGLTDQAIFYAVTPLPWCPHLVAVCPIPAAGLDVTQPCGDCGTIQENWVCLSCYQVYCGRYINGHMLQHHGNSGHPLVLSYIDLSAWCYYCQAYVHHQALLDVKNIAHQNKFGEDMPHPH
- PROCEDURE_DETAILS: HDAC6 in vitro enzymatic assay (fluorescence)
- Type: biochemical
- MEASUREMENT_CONTEXT: Table 3; read-out: IC50 (nM) for inhibition of HDAC6
Counter-ions that a name gives are not always drawn.
ENDPOINT: IC50 (nM)

In the examples that follow, each entry is paired with its recorded IC50.
Cc1noc(C)c1-c1cc2cc(C(=O)NO)ccc2s1 :: 36
CC(C)c1ccc(-c2cc3cc(C(=O)NO)cnc3[nH]2)cc1 :: 19
COCCN(C)Cc1cccc(-c2nc3cc(C(=O)NO)ccc3o2)c1 [Example 205, trifluoroacetate] :: 64

[P] CS(=O)(=O)c1ccc(-c2ccc(-c3nc4cc(C(=O)NO)ccc4o3)cc2)cc1
[Q] Cc1noc(C)c1-c1ccc(-c2nc3cc(C(=O)NO)ccc3o2)cc1
Looking at P and Q , which one comes out lower in IC50 terms? # answer = label of selected item
P

====

- TESTED_TARGET: HDAC6 (Homo sapiens (Human))
- PROCEDURE_DETAILS: HDAC6 in vitro enzymatic assay (fluorescence)
- Format: biochemical
- MEASUREMENT_CONTEXT: Table 4 selectivity profiling; read-out: IC50 (nM) HDAC6
Where a name gives a salt, the structure may show the parent alone.
ENDPOINT: IC50 (nM)

O=C(NO)c1ccc2nc(Nc3cccc(OCc4ccccc4)c3)[nH]c2c1 [Example 132] :: 17
COc1ncccc1-c1ccc(-c2nc3cc(C(=O)NO)ccc3o2)cc1 [Example 28] :: 28
CCN(CC)Cc1cc2ccc(C(=O)NO)cc2o1 [Example 117, trifluoroacetate] :: 26

[I] CC(C)c1ccc(-c2cc3cc(C(=O)NO)cnc3o2)cc1 [Example 113]
[II] O=C(NO)c1ccc2oc(-c3ccc(C4CC4)cc3)nc2c1 [Example 29]
Looking at I and II , which one comes out lower in IC50 terms? # answer = label of selected item
II
(II: 10 nM, I: 22 nM)

====

- TESTED_TARGET: HDAC6 (Homo sapiens (Human))
- PROCEDURE_DETAILS: HDAC6 in vitro enzymatic assay (fluorescence)
- Assay type: biochemical
- MEASUREMENT_CONTEXT: Table 3; read-out: IC50 (nM) for inhibition of HDAC6
Counter-ions that a name gives are not always drawn.
ENDPOINT: IC50 (nM)

O=C(NO)c1ccc2oc(NC3(c4cccc(F)c4)CCCCC3)nc2c1 [Example 262] :: 9
C[C@@H]1CN(Cc2ccc(-c3nc4cc(C(=O)NO)ccc4o3)cc2)C[C@H](C)O1 [Example 207, trifluoroacetate] :: 73

[P] O=C(NO)c1ccc2oc(-c3ccc(-c4cccnc4)cc3F)nc2c1 [Example 175]
[Q] O=C(NO)c1ccc2oc(-c3ccc(Br)cc3)nc2c1 [Example 2]
Thinking about recorded IC50 values, which is higher, P or Q ? # answer = label of selected item
P

From: patent US10654814B2
